# System: Zika virus NS2B-NS3 protease (unlinked complex)
# run_description: Primary screen GU Rhodamine qHTS for Zika virus inhibitors: Unlinked NS2B-NS3 protease assay (AID 1347159); also: % is scaled to controls: 0 for no effect and ±100 for the full control effect; nearly all actives have a fitted effect of over 60% in size
# reported_conditions: Recombinant ZIKV NS2B-NS3 protease, Rhodamine110 substrate fluorescence; series mostly up to 107 µM
Results filed as inconclusive are left out. The source made the active and inactive calls. Calls follow the shape of the dose curve; as a rule, active = well fitted inhibition curve with a large enough effect; inconclusive = small, poorly fitted or top-dose-only effect; inactive = no such curve, though single readings can be large or run the other way.
Answer with one of the outcomes active, inactive

{"compound": "O=C1[C@H](O[C@@H]2O[C@H](CO)[C@@H](O)[C@H](O)[C@H]2O)Oc2ccccc2N1O", "measured_target": "Zika virus NS2B-NS3 protease (unlinked complex)", "class_assignment": "inactive"}

I'd appreciate the recorded outcome for Oc1ccc([C@H]2COc3cc(O)ccc3C2)cc1 from this test. inactive

GET /call?item= COC(=O)C1(Cc2ccc(O)cc2)OC(=O)C(OC)=C1c1ccc(O)cc1 (stereo unspecified) returns the recorded outcome of this test. inactive

What did this assay record as the result for CC(C)NC[C@H](O)COc1ccc(CCOCC2CC2)cc1 ? inactive

Just curious, what result did O=C(O)c1n[nH]c2c1C[C@H]1C[C@@H]21 get here? inactive

// param item: CNC(=O)Nc1ccc(OC)c(NC(=O)NC(=O)c2cc(F)c(F)cc2Cl)c1 ; yields the recorded call inactive

---

# Test system: CAOV3
# run_description: Primary qHTS to identify gynecologic anti-cancer compounds using libraries of approved drugs and bioactive compounds (AID 1345084); also: % is scaled to controls: 0 for no effect and ±100 for the full control effect; nearly all actives have a fitted effect of over 55% in size
# reported_conditions: Gynecologic cancer cell panel viability, ATPlite luminescence, 48 h; series mostly up to 57.5 µM
Inconclusive results are not listed. Activity calls are given as the source filed them. Calls follow the shape of the dose curve; as a rule, active = well fitted cell-killing curve with a large enough effect; inconclusive = small, poorly fitted or top-dose-only effect, or effect the other way; inactive = flat fitted curve, though single readings scatter. *1 amine or outer side, *2 acyl side, *3 side chain or, on linkers, in order; H or OH if unused. Where a SMILES comes first, the peptide text is derived from it. Bridges are numbered along the chain shown (N, C = ends). X6 = O=C(CCC[*:2])[*:1]
recorded_endpoint: activity change, negative = cytotoxicity

Take a look at these entries with their results.
{"compound": "CC(CCC1(O)OC2CC3C4CCC5CC(O[C@@H]6O[C@H](CO)[C@@H](O)[C@H](O)[C@H]6O[C@@H]6OC[C@@H](O)[C@H](O)[C@H]6O)C(O)CC5(C)C4CCC3(C)C2C1C)CO[C@@H]1O[C@H](CO)[C@@H](O)[C@H](O)[C@H]1O (some centres not stated)", "measured_target": "CAOV3", "activity change, negative = cytotoxicity": "10.9% [at 11.6 µM] (inactive)"}
{"compound": "C=C1CC2[C@]3(C)C(=C(O)C(=O)[C@@]2(C)[C@]2(C(=O)OC)C(=O)C(C)OC(=O)[C@@]12C)C(C)(C)C(=O)CC3O (some centres not stated)", "measured_target": "CAOV3", "activity change, negative = cytotoxicity": "inactive"}
{"compound": "CC(=O)N[C@H]1[C@H](O[C@H]2CC[C@@]3(C)C(CC[C@]4(C)C3CC=C3C5CC(C)(C)CC[C@]5(C(=O)O)[C@H](O[C@@H]5O[C@H](CO)[C@@H](O)[C@H](O)[C@H]5O)C[C@]34C)C2(C)C)O[C@H](CO[C@@H]2OC[C@H](O)[C@H](O)[C@H]2O[C@@H]2OC[C@@H](O)[C@H](O)[C@H]2O)[C@@H](O)[C@@H]1O (some centres not stated)", "measured_target": "CAOV3", "activity change, negative = cytotoxicity": "4.01% [at 11.6 µM] (inactive)"}
{"compound": "N#Cc1ccc2[nH]c(O)c(-c3ccc(CN4CCOCC4)cn3)c2c1", "measured_target": "CAOV3", "activity change, negative = cytotoxicity": "inactive"}
{"compound": "COc1ccc2c(c1)OC[C@]1(O)c3cc4c(cc3O[C@H]21)OCO4", "measured_target": "CAOV3", "activity change, negative = cytotoxicity": "inactive"}

Hi, could you look up activity change, negative = cytotoxicity for each item in my list?
1. CC1OC(O[C@H]2[C@@H](O)C[C@@]3(C)C([C@H](O)C[C@]4(C)C3CC=C3C5CC(C)(C)CC[C@]5(C(=O)OC5OC(CO)C(O)C(O)C5OC5OCC(OC6OCC(OC7OCC(O)C(O)C7O)C(O)C6O)C(OC6OCC(O)(CO)C6O)C5O)CC[C@]34C)[C@]2(C)CO)C(O)C(O)C1O (some centres not stated)
2. C=C1CCC2C(C)(C)CC(=O)CC2(C)C1CCC(C)CCOC(C)=O (configuration not stated)
3. CC(CCC1C(C(=O)O)=CC(=O)CC1(C)C)O[C@@H]1O[C@H](CO)[C@@H](O)[C@H](O)[C@H]1O (some centres not stated)
4. CC[C@H](C)[C@@H]1NC(=O)[C@H](Cc2ccc(OC)cc2)NC(=O)CCCSC[C@@H](C(=O)N2CCC[C@H]2C(=O)N[C@@H](CC(C)C)C(=O)NCC(N)=O)NC(=O)[C@H](CC(N)=O)NC(=O)[C@H](CCC(N)=O)NC1=O (Y(Me)IQNCPLG-NH2; linker N-5 via X6)
5. Cc1ncc([N+](=O)[O-])n1CC(O)CN1CCOCC1 (configuration not stated)

1: -2.76% [at 6.55 µM] (inactive); 2: inactive; 3: inactive; 4: inactive; 5: inactive

Give measured activity change, negative = cytotoxicity for every item shown.
1. COc1ccc2c3c1O[C@H]1C[C@@H](O)C=C[C@@]31CCN(C)C2
2. CC(C)(OC1OC(CO)C(O)C(O)C1O)C1CCC(O)(CO)C2CC(O)C(C)(O)C2C1 (configuration not stated)
3. CC/C=C\C[C@H]1C(=O)C=C[C@@H]1CCCCCCCC(=O)O
4. COc1cc(COC2OC(CO)C(O)C(O)C2O)cc(OC)c1O (configuration not stated)
5. CC(C(=O)O)C1CCC2(C)C3C(=O)C=C4C(CCC(=O)C4(C)C)C3(C)CCC12C (configuration not stated)
6. C[C@H]1[C@H](C)CC[C@]2(C(=O)O)CC[C@]3(C)C(=CC[C@@H]4[C@@]5(C)C[C@@H](O)[C@H](O)[C@@](C)(CO)[C@@H]5CC[C@]43C)[C@H]12
7. COc1cc(C(C)=O)ccc1O[C@@H]1O[C@H](CO[C@@H]2O[C@@H](C)[C@H](O)[C@@H](O)[C@H]2O)[C@@H](O)[C@H](O)[C@H]1O

1. inactive
2. inactive
3. inactive
4. inactive
5. inactive
6. inactive
7. inactive
